Give β2 Int Act for every item shown.
- study_target: Adrenergic β2 (Homo sapiens, UniProt P07550)
- Construct: Adherent H292 cells were removed from tissue culture flasks; endogenous in cells; host or cells: H292 cells
- Sequence (P07550 whole entry): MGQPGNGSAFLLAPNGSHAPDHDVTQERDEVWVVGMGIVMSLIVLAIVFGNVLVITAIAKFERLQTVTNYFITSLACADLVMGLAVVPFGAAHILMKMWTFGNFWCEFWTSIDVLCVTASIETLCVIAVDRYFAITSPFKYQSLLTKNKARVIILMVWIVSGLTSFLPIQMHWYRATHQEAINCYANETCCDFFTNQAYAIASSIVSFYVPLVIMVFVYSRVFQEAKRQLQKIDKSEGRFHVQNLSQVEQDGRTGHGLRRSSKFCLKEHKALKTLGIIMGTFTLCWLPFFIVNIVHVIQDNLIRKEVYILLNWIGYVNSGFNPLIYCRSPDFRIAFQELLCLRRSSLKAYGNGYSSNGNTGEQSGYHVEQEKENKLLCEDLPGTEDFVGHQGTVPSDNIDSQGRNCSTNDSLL
- experimental_details: Adrenergic β2 mediated cAMP production in H292 cells (AlphaScreen cAMP detection)
- Assay type: cell-based
- Design: key: fraction of formoterol maximum activity (formoterol = 1)
- run_conditions: Intrinsic Activity as a fraction relative to the maximum activity determined for formoterol
- Description: Adrenergic β2 Mediated cAMP Production H292 cells were grown in 225 cm2 flasks incubator at 37° C., 5% CO2 in RPMI medium containing, 10% (v/v) FBS (foetal bovine serum) and 2 mM L-glutamine. […] The concentration of cAMP (cyclic adenosine monophosphate) in the cell lysate was determined using AlphaScreen™ methodology. […] Intrinsic Activity was expressed as a fraction relative to the maximum activity determined for formoterol in each experiment.
Structures can show the parent of a compound that is named as a salt.
Answers are plain numbers.

Example entries and their recorded answers appear below.
O=C1COc2c(CCNCCN(C(=O)CCNCCc3cc(F)ccc3F)C3CCCCC3)ccc(O)c2N1 [Example 38, bis(trifluoroacetate)]
0.98
O=C1COc2c(CCNCCN(C(=O)CCOCCc3ccccc3F)C3CCCCC3)ccc(O)c2N1 [Example 76, trifluoroacetate]
1.1

Hi team, please reply with β2 Int Act for each item in this list.
1. O=C1COc2c(CCNCCN(C(=O)CCNCCc3ccc(F)c(Cl)c3)C3CCCCC3)ccc(O)c2N1 [Example 37, bis(trifluoroacetate)]
2. CC[C@@H](C)N(CCNCCc1ccc(O)c2c1OCC(=O)N2)C(=O)CCNCCc1ccc(Cl)c(Cl)c1 [Example 58, dihydrochloride]
3. O=C1COc2c(CCNCCN(C(=O)CCOCCc3cccc(F)c3)C3CCCCC3)ccc(O)c2N1 [Example 74, trifluoroacetate]
4. C[C@H](CNCCC(=O)N(CCNCCc1ccc(O)c2[nH]c(=O)ccc12)C1CCCCCC1)c1ccccc1 [Example 9, bis(trifluoroacetate)]

0.89
0.91
0.97
0.91

----------
- study_target: Adrenergic β2 (Homo sapiens, UniProt P07550)
- Construct: Adherent H292 cells were removed from tissue culture flasks; endogenous in cells; host or cells: H292 cells
- experimental_details: Adrenergic β2 mediated cAMP production in H292 cells (AlphaScreen cAMP detection)
- Format: cell-based
- Design: key: fraction of formoterol maximum activity (formoterol = 1)
- run_conditions: Intrinsic Activity as a fraction relative to the maximum activity determined for formoterol
Provide the reported β2 Int Act of each item.
Answers are plain numbers.

O=C(CCNCCc1ccccc1)N(CCNCCc1ccc(O)c2[nH]c(=O)ccc12)C1CCCCCC1 [Example 7, bis(trifluoroacetate)]
0.76
Cc1cc(CCNCCC(=O)N(CCNCCc2ccc(O)c3c2OCC(=O)N3)C2CCCCCC2)ccc1F [Example 62, bis(trifluoroacetate)]
0.86

// below: β2 Int Act requested for another compound
Under Adrenergic β2 (Homo sapiens, UniProt P07550): β2 Int Act value of O=C1COc2c(CCNCCN(C(=O)CCNCCc3cccc(Cl)c3)C3CCCCC3)ccc(O)c2N1 [Example 27, bis(trifluoroacetate)] ? 0.89

----------
- study_target: recombinant human Dopamine Subtype D2s receptors (Homo sapiens)
- Construct: purchased Perkin Elmer
- Sequence (P14416 1-414 isoform P14416-2): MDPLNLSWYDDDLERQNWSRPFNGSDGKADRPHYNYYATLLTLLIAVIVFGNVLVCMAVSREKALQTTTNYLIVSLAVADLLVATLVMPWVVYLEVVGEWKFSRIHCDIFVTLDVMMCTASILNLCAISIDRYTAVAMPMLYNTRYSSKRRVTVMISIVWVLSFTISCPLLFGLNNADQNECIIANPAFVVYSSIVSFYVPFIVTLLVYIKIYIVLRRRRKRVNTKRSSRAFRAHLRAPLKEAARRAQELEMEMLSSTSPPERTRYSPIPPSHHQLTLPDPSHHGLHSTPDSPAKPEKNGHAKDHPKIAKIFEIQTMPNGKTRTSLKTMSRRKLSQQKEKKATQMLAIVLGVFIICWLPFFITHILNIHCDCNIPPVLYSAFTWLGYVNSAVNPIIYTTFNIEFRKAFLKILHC
- experimental_details: Dopamine D2 selectivity assay, [3H]-spiperone binding to membranes
- run_conditions: inhibition of [3H]-spiperone binding, read-out: D2 bind pIC50 (converted)
Where a name gives a salt, the structure may show the parent alone.
readout_label: IC50 (nM)
Give bare numbers, in nM.

O=C1COc2c(CCNCCN(C(=O)CCNCCc3cccc(F)c3)C3CCCCCC3)ccc(O)c2N1 [Example 69, bis(trifluoroacetate)]
158
O=C1COc2c(CCNCCN(C(=O)CCNCCc3cccc(Cl)c3)C3CCCCCC3)ccc(O)c2N1 [Example 68, bis(trifluoroacetate)]
100
O=C1COc2c(CCNCCN(C(=O)CCNCCc3ccc(Cl)cc3)C3CCCCCC3)ccc(O)c2N1 [Example 63, bis(trifluoroacetate)]
39.8
CCCC[C@@H](C)N(CCNCCc1ccc(O)c2c1OCC(=O)N2)C(=O)CCNCCc1ccccc1 [Example 25, bis(trifluoroacetate)]
100
CCCC[C@@H](C)N(CCNCCc1ccc(O)c2c1OCC(=O)N2)C(=O)CCNCCc1cccc(Cl)c1 [Example 44, bis(trifluoroacetate)]
79.4

Consider the following items and state reported IC50 for each.
1. O=C1COc2c(CCNCCN(C(=O)CCNCCc3cc(F)cc(Cl)c3)C3CCCCC3)ccc(O)c2N1 [Example 41, (trifluoroacetate)]
2. O=C1COc2c(CCNCCN(C(=O)CCOCCc3ccccc3F)C3CCCCC3)ccc(O)c2N1 [Example 76, trifluoroacetate]
3. O=C(CCNCCc1cccc(Cl)c1)N(CCNCCc1ccc(O)c2[nH]c(=O)ccc12)C1CCCCC1 [Example 13, bis(trifluoroacetate)]
4. Cc1cccc(CCNCCC(=O)N(CCNCCc2ccc(O)c3[nH]c(=O)ccc23)C2CCCCCC2)c1 [Example 8, bis(trifluoroacetate)]
5. O=C1COc2c(CCNCCN(C(=O)CCNCCc3ccc(F)c(F)c3)C3CCCCCC3)ccc(O)c2N1 [Example 67, bis(trifluoroacetate)]
6. O=C1COc2c(CCNCCN(C(=O)CCNCCc3cccc(Cl)c3Cl)C3CCCCC3)ccc(O)c2N1 [Example 29, bis(trifluoroacetate)]
7. O=C1COc2c(CCNCCN(C(=O)CCNCCc3cc(F)ccc3F)C3CCCCC3)ccc(O)c2N1 [Example 38, bis(trifluoroacetate)]

200
2510
50.1
398
100
100
126

----------
Give measured IC50 for each item. Keep answers brief.
- study_target: recombinant human adrenergic beta 1 receptors (Homo sapiens, UniProt P08588)
- Construct: purchased Euroscreen
- Sequence (P08588 whole entry): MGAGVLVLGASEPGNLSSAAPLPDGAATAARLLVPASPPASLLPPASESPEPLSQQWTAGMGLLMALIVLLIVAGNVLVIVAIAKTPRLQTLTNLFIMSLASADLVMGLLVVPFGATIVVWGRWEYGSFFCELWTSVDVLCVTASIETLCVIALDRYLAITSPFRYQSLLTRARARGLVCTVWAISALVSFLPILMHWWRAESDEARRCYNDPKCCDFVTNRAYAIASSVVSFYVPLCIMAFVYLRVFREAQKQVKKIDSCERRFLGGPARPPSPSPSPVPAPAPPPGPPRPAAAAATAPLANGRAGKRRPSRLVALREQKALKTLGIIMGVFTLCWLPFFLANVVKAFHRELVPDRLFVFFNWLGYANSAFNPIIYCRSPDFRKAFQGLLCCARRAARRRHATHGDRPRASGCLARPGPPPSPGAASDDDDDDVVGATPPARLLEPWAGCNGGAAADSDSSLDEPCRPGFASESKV
- experimental_details: Adrenergic β1 selectivity assay, [125I]-Iodocyanopindolol binding to membranes
- run_conditions: inhibition of [125I]-Iodocyanopindolol binding, read-out: β1 bind pIC50 (converted)
Where a name gives a salt, the structure may show the parent alone.
Give bare numbers, in nM.

O=C1COc2c(CCNCCN(C(=O)CCNCCc3cccc(Cl)c3)C3CCCCC3)ccc(O)c2N1 [Example 27, bis(trifluoroacetate)]
3160
CC(C)[C@@H](C)N(CCNCCc1ccc(O)c2c1OCC(=O)N2)C(=O)CCNCCc1ccc(Cl)c(Cl)c1 [Example 59, dihydrochloride]
2000
O=C1COc2c(CCNCCN(C(=O)CCNCCc3ccc(F)c(F)c3)C3CCCCCC3)ccc(O)c2N1 [Example 67, bis(trifluoroacetate)]
1000
CCCC[C@@H](C)N(CCNCCc1ccc(O)c2c1OCC(=O)N2)C(=O)CCNCCc1ccccc1Cl [Example 46, bis(trifluoroacetate)]
1580
O=C1COc2c(CCNCCN(C(=O)CCNCCc3ccc(F)c(F)c3)C3CCCCC3)ccc(O)c2N1 [Example 42, bis(trifluoroacetate)]
3160
O=C(CCNCCc1ccc(Cl)cc1)N(CCNCCc1ccc(O)c2[nH]c(=O)ccc12)C1CCCCCC1 [Example 4, bis(trifluoroacetate)]
3160
CCCC[C@@H](C)N(CCNCCc1ccc(O)c2c1OCC(=O)N2)C(=O)CCNCCc1ccc(F)c(F)c1 [Example 52, bis(trifluoroacetate)]
1580
CCCC[C@@H](C)N(CCNCCc1ccc(O)c2c1OCC(=O)N2)C(=O)CCNCCc1ccc(Cl)c(Cl)c1 [Example 55, bis(trifluoroacetate)]
1000

Quick request: IC50 for each listed item, please.
1. O=C1COc2c(CCNCCN(C(=O)CCNCCc3cccc(Cl)c3)C3CCCCCC3)ccc(O)c2N1 [Example 68, bis(trifluoroacetate)]
2. CCCC[C@@H](C)N(CCNCCc1ccc(O)c2c1OCC(=O)N2)C(=O)CCNCCc1ccc(Cl)cc1 [Example 45, bis(trifluoroacetate)]

[398, 1260]

// returns reported IC50 for input CC[C@@H](C)N(CCNCCc1ccc(O)c2c1OCC(=O)N2)C(=O)CCNCCc1ccc(Cl)c(Cl)c1 [Example 58, dihydrochloride] 2000

----------
- study_target: recombinant human α1D receptor (Homo sapiens)
- Construct: expressed in transfected cells; host or cells: human embryonic kidney 293 cells (HEK93 [sic]), membranes
- Sequence (P25100 whole entry): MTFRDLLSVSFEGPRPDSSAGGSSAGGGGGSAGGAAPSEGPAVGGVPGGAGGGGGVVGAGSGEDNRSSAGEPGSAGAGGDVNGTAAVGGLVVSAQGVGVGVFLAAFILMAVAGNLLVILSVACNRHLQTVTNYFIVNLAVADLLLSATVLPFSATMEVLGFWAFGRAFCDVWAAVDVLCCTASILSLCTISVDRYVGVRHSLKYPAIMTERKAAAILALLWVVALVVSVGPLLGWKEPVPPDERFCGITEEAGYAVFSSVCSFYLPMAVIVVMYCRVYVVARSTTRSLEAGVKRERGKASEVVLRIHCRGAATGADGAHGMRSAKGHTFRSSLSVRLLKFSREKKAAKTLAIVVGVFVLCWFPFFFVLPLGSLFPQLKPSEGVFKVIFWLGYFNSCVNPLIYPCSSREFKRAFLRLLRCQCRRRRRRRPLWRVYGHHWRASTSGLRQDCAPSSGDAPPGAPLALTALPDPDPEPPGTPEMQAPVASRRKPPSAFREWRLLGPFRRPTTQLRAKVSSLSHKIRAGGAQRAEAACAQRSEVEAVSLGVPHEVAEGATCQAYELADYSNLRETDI
- experimental_details: Adrenergic α1D selectivity assay, [3H]-prazosin binding to membranes
- run_conditions: inhibition of [3H]-prazosin binding, HEK cell membranes, read-out: α1 bind pIC50 (converted)
readout_label: IC50 (nM)
Numbers only, in nM.

Example entries and their recorded answers appear below.
CCCC[C@@H](C)N(CCNCCc1ccc(O)c2c1OCC(=O)N2)C(=O)CCNCCc1ccc(Cl)cc1 [Example 45, bis(trifluoroacetate)]
251
O=C(CCNCCc1cccc(F)c1)N(CCNCCc1ccc(O)c2[nH]c(=O)ccc12)C1CCCCCC1 [Example 5, bis(trifluoroacetate)]
158

For every item in the list below, what is its measured IC50?
1. CCCC[C@@H](C)N(CCNCCc1ccc(O)c2c1OCC(=O)N2)C(=O)CCNCCc1ccc(Cl)c(Cl)c1 [Example 55, bis(trifluoroacetate)]
2. Cc1cc(CCNCCC(=O)N(CCNCCc2ccc(O)c3c2OCC(=O)N3)C2CCCCCC2)ccc1F [Example 62, bis(trifluoroacetate)]
3. CCCC[C@@H](C)N(CCNCCc1ccc(O)c2c1OCC(=O)N2)C(=O)CCNCCc1ccc(F)c(F)c1 [Example 52, bis(trifluoroacetate)]

1: 251; 2: 39.8; 3: 200

# batch: return IC50 for each of the 3 compounds below
1. O=C(CCNCCc1ccc(Cl)cc1)N(CCNCCc1ccc(O)c2[nH]c(=O)ccc12)C1CCCCCC1 [Example 4, bis(trifluoroacetate)]
2. CCOc1cccc(CCNCCC(=O)N(CCNCCc2ccc(O)c3[nH]c(=O)ccc23)C2CCCCCC2)c1 [Example 11, bis(trifluoroacetate)]
3. Cl.O=C(CCOCCc1ccccc1F)N(CCNCCc1ccc(O)c2[nH]c(=O)ccc12)C1CCCCC1 [Example 73, hydrochloride]

1: 79.4; 2: 316; 3: 631

Each compound below has a reported value. Please supply its IC50.
1. O=C(CCOCCc1ccccc1)N(CCNCCc1ccc(O)c2[nH]c(=O)ccc12)C1CCCCC1 [Example 2]
2. O=C1COc2c(CCNCCN(C(=O)CCNCCc3cccc(Cl)c3Cl)C3CCCCC3)ccc(O)c2N1 [Example 29, bis(trifluoroacetate)]

794
126

Batch lookup, IC50 per entry.
1. O=C1COc2c(CCNCCN(C(=O)CCNCCc3ccc(Cl)cc3)C3CCCCCC3)ccc(O)c2N1 [Example 63, bis(trifluoroacetate)]
2. O=C(CCNCCc1cccc(F)c1F)N(CCNCCc1ccc(O)c2[nH]c(=O)ccc12)C1CCCCC1 [Example 18]
3. O=C(CCNCCc1cccc(-c2ccccc2)c1)N(CCNCCc1ccc(O)c2[nH]c(=O)ccc12)C1CCCCCC1 [Example 12, bis(trifluoroacetate)]

1: 100; 2: 398; 3: 316

Attribution: patent US20100056508A1
